experiment: Inhibition of avian influenza virus (H5N1) matrix 2 protein expressed in HEK293 cells by path clamp electrophysiology method; type: cell-based; settings: Influenza A virus
The entries below come with measured IC50 values attached.
// note: answer is a bare numeric in µM

Field: example entries. Status: answers known.
CC(C)(C)C1CCC(N)CC1 (stereo unspecified): 4.8
NC12CC3CC(CC(C3)C1)C2: 8.8
C[C@H]1[C@H](N)C[C@@H]2C[C@H]1C2(C)C: 4.3
CC1(C)[C@@H]2CC[C@H](CN)[C@H]1C2: 4.4
C[C@@H]1[C@@H](N)C[C@H]2C[C@@H]1C2(C)C: 6.8

Now consider a different compound.
Consider the compound NC12CC3CC(CC1C3)C2 and give its measured IC50.
13.5

====

test system: Influenza A virus; assay: Antiviral activity against Influenza A virus (A/Hong Kong/8/1968([…])) infected in MDCK cells; type: functional, organism-based
Reported pIC50 values follow for various compounds
pIC50 is a log-scale quantity: -log10 of the concentration expressed in molar.

CC1(C)[C@@H]2CC[C@H](CN)[C@H]1C2: 5.64
NC12CC3CC(CC1C3)C2: 4.42
CC(C)(C)C1CCC(N)CC1 (stereo unspecified): 4.48
C[C@@H]1[C@@H](N)C[C@H]2C[C@@H]1C2(C)C: 5.22

Recorded pIC50 of C[C@H]1[C@H](N)C[C@@H]2C[C@H]1C2(C)C , please.
5.87

Any idea what its pIC50 is? The compound is NC12CC3CC(CC(C3)C1)C2 [AMANTADINE]
5.22
